Measured values drawn from patent US20250188079A1 for this set.

target: CBP (Homo sapiens (Human), UniProt Q92793); test: HTRF biochemical assay for CBP activity (TR-FRET, bromodomain); assay type: binding; conditions: geometric mean, 10-point 3-fold dilution 33 μM to 1.7 nM, read-out: BROMO IC50 TRF TB CBP (μM gmean)
Sequence (Q92793 1085-1192): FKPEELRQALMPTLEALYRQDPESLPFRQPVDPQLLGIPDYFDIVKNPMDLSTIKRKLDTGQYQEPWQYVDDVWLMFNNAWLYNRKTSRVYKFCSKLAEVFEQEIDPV
value.kind: IC50

- COC(=O)N1CCc2ccc3c(nc(-c4cccc([C@](C)(O)C(=O)O)c4)n3[C@H](C)Cc3ccccc3)c2C1: 0.001 to 0.01 µM
- COC(=O)N1CCc2ccc3c(nc([C@H]4CC[C@H](OC)CC4)n3C[C@@H](C(=O)O)c3ccccc3)c2C1: 0.001 to 0.01 µM
- COC(=O)N1CCc2ccc3c(nc([C@H]4CC[C@H](C(=O)O)CC4)n3C(=O)N(C)c3ccccc3)c2C1: 0.1 to 1 µM
- COC(=O)N1CCc2ccc3c(nc(N4CCCCC4)n3[C@@H](C)Cc3cccc(-c4nnn[nH]4)c3)c2C1: 0.001 to 0.01 µM
- COC(=O)N1CCc2ccc3c(nc([C@H]4CC[C@H](C(=O)O)CC4)n3[C@@H](C)Cc3ccccc3Cl)c2C1: 0.001 to 0.01 µM
- COC(=O)N1CCc2ccc3c(nc([C@@H]4CCC[C@@H](C(=O)O)C4)n3Cc3cncc(Cl)n3)c2C1: 0.1 to 1 µM
- COC(=O)N1CCc2ccc3c(nc([C@H]4CC[C@H](C(=O)O)CC4)n3[C@H](C)Cc3cccc(F)c3F)c2C1: 0.01 to 0.1 µM
- COC(=O)N1CCc2ccc3c(nc([C@H]4CC[C@H](C(=O)O)CC4)n3[C@@H](CO)Cc3ccc(F)c(F)c3)c2C1: 0.001 to 0.01 µM
- COC(=O)N1CCc2ccc3c(nc([C@H]4CC[C@H](C(=O)O)CC4)n3[C@H](C)[C@@H](O)c3ccccc3)c2C1: 0.001 to 0.01 µM
- COC(=O)N1CCc2ccc3c(nc(C4CCCCC4)n3[C@@H](C)C[C@@H]3CCCC[C@@H]3C(=O)O)c2C1: 0.001 to 0.01 µM
- COC(=O)N1CCc2ccc3c(nc([C@H]4CC[C@H](C(=O)O)CC4)n3C[C@@H](OC)c3ccccc3)c2C1: 0.01 to 0.1 µM
- COC(=O)N1CCc2ccc3c(nc([C@H]4CC[C@H](C(=O)O)CC4)n3[C@@H](C)C[C@H]3CC[C@@H](OC(F)(F)F)CC3)c2C1: 0.01 to 0.1 µM
- COC(=O)N1CCc2ccc3c(nc(C4CCCCC4)n3CCc3ccc(F)c(C(=O)O)c3)c2C1: 0.001 to 0.01 µM
- COC(=O)N1CCc2c(C(=O)O)cc3c(nc(C4CCCCC4)n3[C@H](C)Cc3ccccc3)c2C1: 0.1 to 1 µM
- COC(=O)N1CCc2ccc3c(nc([C@H]4CCC[C@H](C(=O)O)C4)n3[C@H](C)Cc3ccccc3Cl)c2C1 (single isomer, unassigned): 0.01 to 0.1 µM
- COC(=O)N1CCc2ccc3c(nc(C4CCCCC4)n3[C@@H](C)C[C@@H]3CCCC[C@H]3C(=O)O)c2C1: 0.01 to 0.1 µM
- COC(=O)N1CCc2ccc3c(nc([C@H]4CC[C@H](C(=O)O)CC4)n3[C@H](C)C[C@H]3CC[C@H](OC(F)(F)F)CC3)c2C1: 0.1 to 1 µM
- COC(=O)N1CCc2ccc3c(nc(C4CCCCC4)n3C[C@](C)(C(=O)O)c3ccccc3)c2C1: 0.001 to 0.01 µM
- COC(=O)N1CCc2c(C#N)cc3c(nc([C@H]4CC[C@H](C(=O)O)CC4)n3[C@@H](C)Cc3ccccc3)c2C1: 0.001 to 0.01 µM
- COC(=O)N1CCc2ccc3c(nc([C@H]4CCC[C@H](C(=O)O)C4)n3Cc3cccc(Cl)n3)c2C1: 0.01 to 0.1 µM
- COC(=O)N1CCc2ccc3c(nc([C@H]4CC[C@H](C(=O)O)CC4)n3[C@@H](C)Cc3ccc(F)c(OC)c3)c2C1: 0.001 to 0.01 µM
- COC(=O)N1CCc2ccc3c(nc(C4CCCCC4)n3C[C@H](C(=O)O)c3cccc(F)c3F)c2C1 (single isomer, unassigned) [Compound 26]: 0.001 to 0.01 µM
- COC(=O)N1CCc2ccc3c(nc([C@H]4CC[C@H](C(=O)O)CC4)n3C3(Cc4ccccc4)COC3)c2C1: 0.01 to 0.1 µM
- COC(=O)N1CCc2ccc3c(nc([C@H]4CCC[C@@H](C(=O)O)C4)n3[C@@H](C)Cc3ccccc3)c2C1 (single isomer, unassigned): 0.001 to 0.01 µM
- COC(=O)N1CCc2ccc3c(nc([C@H]4CC[C@H](C(=O)O)CC4)n3[C@H]3CCc4ccccc4C3)c2C1: 0.1 to 1 µM
- COC(=O)N1CCc2ccc3c(nc([C@H]4CC[C@H](C(=O)O)CC4)n3[C@H](C)Cc3ccc(F)c(OC)c3)c2C1: 0.01 to 0.1 µM
- COC(=O)N1Cc2c(ccc3c2nc(C2CCCCC2)n3Cc2ccccc2)C[C@H]1C: 0.01 to 0.1 µM
